Test system: DU-145 prostate
Assay: NCI tumour cell line growth inhibition, 48 h
Observed Property: TGI (µM)
Could you give me the number in µM? Just the number is fine.

compound=N#Cc1c(O)c2c(c(O)c1C#N)C(=O)c1ccccc1C2=O numeric_value=2.5
compound=N#Cc1c2c(c(Nc3ccc(F)cc3)n3c1nc1ccccc13)CCC2 numeric_value=13.9
compound=CC(=O)c1ccc(N(/C=C/C(=O)C(F)(F)F)CC(=O)c2ccc(Cl)c(Cl)c2)cc1 numeric_value=36.1

Alright, here's another compound for you.
Query: Name the recorded TGI for COc1cccc(C2c3cc4c(cc3OC(N3CCCC3)C2C)OCO4)c1OC (stereo not drawn) .
Response: 11.5
